The values you see were collected from PubChem BioAssay (NCI).

# System: M14 melanoma
# Procedure text: NCI-60 one-dose screen, 48 h (100 = growth as untreated, 0 = no growth, -100 = all killed)
# Settings: 10 µM unless noted
About 83,000 compounds went through this panel and 20% of them were active in at least one assay; those are over-represented in the sample as a whole.
Rule: growth below 90% gives 1, anything at or above gives -1.

Sample answers from the record:
* COc1ccc2[nH]c(C(=O)N3CCN(C(=O)OCc4ccc5c(Cl)cc(Cl)c(O)c5n4)CC3)cc2c1 | 1
* Fc1cnccc1C1CC(c2ccc(N3CCNCC3)cc2)=NN1 (stereo not given) | -1
* CSc1nc2ncc([N+](=O)[O-])c(=O)n2[nH]1 | -1

hey, is growth for CC(=O)O[C@@H]1C[C@]2(C(C)C)O[C@@]1(C)[C@@H]1CCC(C)=C1[C@@H]2OC(=O)/C=C/c1ccccc1 lower than 90% or not? -1

hey, is growth for O=C1/C(=C/c2ccccc2O)CC/C1=C\c1ccccc1O lower than 90% or not? 1

---

# Test system: ACHN renal
# Procedure text: NCI-60 one-dose screen, 48 h (100 = growth as untreated, 0 = no growth, -100 = all killed)
# Settings: 10 µM unless noted
Compounds without any hit were thinned out: in the full panel of roughly 83,000, 20% have a hit.
Recorded growth by entry
Express it in %; write the number only.

* N#Cc1c(-c2ccc(Cl)cc2)c(C#N)c2c(C#N)c(N)nn2c1N | 87.7

// growth lookup, key: Nc1cnc(C(=O)NNc2nc3cc(F)ccc3n3cccc23)cn1 12.9

---

# Test system: ACHN renal
# Procedure text: NCI-60 one-dose screen, 48 h (100 = growth as untreated, 0 = no growth, -100 = all killed)
# Settings: 10 µM unless noted
Compounds without any hit were thinned out: in the full panel of roughly 83,000, 20% have a hit. Activity calls are given as the source filed them. Rule for the calls: active = growth percent below 10; inactive = the rest.
Recorded growth by entry

Some molecules with known growth results, for comparison:
• CCSC(SCC)c1ccc(Cl)cc1 = 107% (inactive)
• Cc1ccc2c(Cn3cc(CSc4nc5ccccc5o4)nn3)cc(=O)oc2c1 = 103% (inactive)

// growth lookup, key: CN1C(=O)/C(=C\c2nc([P+](c3ccccc3)(c3ccccc3)c3ccccc3)c(N3CCOCC3)o2)SC1=S 102% (inactive)

// growth lookup, key: COC12C=C/C(=C(/C(=O)OCc3ccncn3)C(=O)CCCCCCCCC3(OC)C=C/C(=C(/C(=O)OCc4ccncn4)C(=O)CCCCCCCC1)O3)O2 -74.8% (active)

// growth lookup, key: Cc1cc(C(=O)O)c(C)n1-c1cccc(C(=O)O)c1 -8.94% (active)

// growth lookup, key: Cn1ccnc1C(=O)/C=C/c1ccc(C(=O)Nc2ccc(Cl)cc2)cc1 -39.9% (active)

// growth lookup, key: Cc1c2cnccc2c(C)c2c1c1cc(C#N)ccc1n2C -2.32% (active)

// growth lookup, key: Cc1c[n+](Cc2ccc3ccccc3c2)cn1Cc1ccc2ccccc2c1 89.5% (inactive)

// growth lookup, key: Cc1ccc(Nn2c(SCC(=O)Nc3nc(-c4ccccc4)cs3)nc(C)c2C)cc1 60.9% (inactive)

// growth lookup, key: COc1ccc(/C=N/C2=C(C#N)C(c3ccccc3)c3ccc4ccccc4c3O2)cc1 (stereo not given) 35.4% (inactive)

---

# System: MDA-MB-435 melanoma
# Procedure text: NCI-60 one-dose screen, 48 h (100 = growth as untreated, 0 = no growth, -100 = all killed)
# Settings: 10 µM unless noted
Compounds without any hit were thinned out: in the full panel of roughly 83,000, 20% have a hit.
Observation type: growth (%)
Express it in %; write the number only.

- Oc1c(Br)cc(Br)c2ccc(Cn3cc(-c4ccccc4C(F)(F)F)nn3)nc12: 93.1

// growth lookup, key: COC12C=C/C(=C(/C(=O)OCc3ccncc3)C(=O)CCCCCCCCC3(OC)C=C/C(=C(/C(=O)OCc4ccncc4)C(=O)CCCCCCCC1)O3)O2 -53.8

// growth lookup, key: O=C1c2ccccc2-c2c1c1c(=O)[nH]c3ccccc3c1n2Cc1ccccc1 71.1

// growth lookup, key: C#CCNC(=O)[C@H](CC)[C@H]1CC[C@H](C)[C@H]([C@@H](C)[C@H](O)[C@H](C)C(=O)[C@H](CC)C2O[C@]3(C=CC(=O)[C@]4(CC[C@@](C)([C@H]5CC[C@](O)(CC)[C@H](C)O5)O4)O3)[C@H](C)C[C@@H]2C)O1 (some centres undefined) -65.3

// growth lookup, key: CCCCCCCCCCCCCCCCOCCCOP(=O)(O)C1CCCN(O)C1=O (centres undefined) 14.3

// growth lookup, key: CCCC/C=C/[C@@H]1C[C@H]1CCO 102

// growth lookup, key: O=C1c2ccc3c4c5ccc(c24)C(=O)N1CCCOCCCCOCCCNCc1ccc(cc1)CNCCCOCCCCOCCCN(C3=O)C5=O -95.4

// growth lookup, key: CC(=O)N1N=C(c2ccc(Nc3nc(Nc4ccccc4)nc(Nc4ccccc4)n3)cc2)CC1c1ccccc1 (centres undefined) 101

// growth lookup, key: O=C(O)c1ccc(-n2cc(/C=N/Nc3ccccc3)c(-c3ccc(F)cc3F)n2)cc1 45.9
